- test-method-notes: Pharmacokinetic analysis, plasma and tumor distribution
- Type: in vivo, nude mice
- test-conditions: nude, mouse, tumor, intraperitoneal; within 1 h; read-out: concentration in tumors
readout-name: concentration at 1 h

Prompt: Could you share which concentration at 1 h value was measured for `CCc1cc2c(=O)c(-c3nc4ccccc4s3)coc2c(CN2CCCCC2)c1O` ?
Response: 4790 ng/g

====

Let's look at some compounds and their measured Normalized w/ vehicle treatment.
- subject-of-test: Skp1/Skp2 binding interaction (Homo sapiens, UniProt Q13309)
- Construct: made in house; host or cells: GST-Skp1: E. coli BL21; Skp2: in vitro translation
- Sequence (Q13309 whole entry): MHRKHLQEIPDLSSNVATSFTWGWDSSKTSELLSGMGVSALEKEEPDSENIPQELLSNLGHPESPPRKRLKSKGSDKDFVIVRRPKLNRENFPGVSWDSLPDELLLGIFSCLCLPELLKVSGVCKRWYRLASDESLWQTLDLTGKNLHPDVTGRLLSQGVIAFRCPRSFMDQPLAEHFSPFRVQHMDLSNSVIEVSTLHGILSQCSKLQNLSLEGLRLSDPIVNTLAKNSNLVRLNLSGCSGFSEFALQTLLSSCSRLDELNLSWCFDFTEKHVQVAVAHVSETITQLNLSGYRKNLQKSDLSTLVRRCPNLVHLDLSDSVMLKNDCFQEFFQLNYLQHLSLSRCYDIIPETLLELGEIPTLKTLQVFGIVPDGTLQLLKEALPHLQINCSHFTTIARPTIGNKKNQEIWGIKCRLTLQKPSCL
- test-method-notes: In vitro Skp2-Skp1 binding assay (GST pull-down)
- test-conditions: amount of intact Skp1/Skp2 remaining after treatment, quantified on western blot/images

A selection of reference data follows.
{"smiles-representation": "CCc1cc2c(=O)c(-c3nc4ccccc4s3)coc2c(CN2CCOCC2)c1O", "Normalized w/ vehicle treatment": "10%"}
{"smiles-representation": "COc1ccccc1C(=O)Oc1ccc2c(=O)c(-c3nc4ccccc4s3)coc2c1", "Normalized w/ vehicle treatment": "8%"}
{"smiles-representation": "CCc1cc2c(=O)c(-c3nc4ccccc4s3)coc2c(CN(C)C)c1O", "Normalized w/ vehicle treatment": "8%"}
{"smiles-representation": "CN(C)Cc1c(O)ccc2cc(-c3nc4ccccc4o3)c(=O)oc12", "Normalized w/ vehicle treatment": "10%"}
{"smiles-representation": "CCc1cc2c(=O)c(-c3nc4ccccc4s3)coc2cc1O", "Normalized w/ vehicle treatment": "100% (no effect)"}
{"smiles-representation": "O=c1c(-c2nc3ccccc3s2)coc2cc(O)ccc12", "Normalized w/ vehicle treatment": "75%"}
{"smiles-representation": "Nc1oc2cc(O)ccc2c(=O)c1-c1nc2ccccc2s1", "Normalized w/ vehicle treatment": "8%"}
{"smiles-representation": "Cn1c(-c2cc3ccc(O)c(CN4CCCC4)c3oc2=O)nc2ccccc21", "Normalized w/ vehicle treatment": "35%"}
{"smiles-representation": "Cn1c(-c2cc3ccc(O)c(CN4CCCCCC4)c3oc2=O)nc2ccccc21", "Normalized w/ vehicle treatment": "8%"}
{"smiles-representation": "CCc1cc2c(=O)c(-c3nc4ccccc4s3)coc2c(CN2CCCCC2)c1O", "Normalized w/ vehicle treatment": "10%"}

Prompt: Which measured Normalized w/ vehicle treatment value corresponds to `O=c1oc2c(CN(CCO)CCO)c(O)ccc2cc1-c1nc2ccccc2s1` ?
Response: 80%

Prompt: What does the record list as Normalized w/ vehicle treatment for `Cn1c(-c2cc3ccc(O)c(CN4CCCCC4)c3oc2=O)nc2ccccc21` ?
Response: 40%

====

- test-method-notes: Pharmacokinetic analysis, plasma and tumor distribution
- Assay type: in vivo, nude mice
- test-conditions: nude, mouse, blood, intraperitoneal; 24 h after administration; read-out: terminal concentration in blood
readout-name: concentration at 24 h (ng/mL)
Report the value in ng/mL with no unit label.

Prompt: Which concentration at 24 h reading was recorded for the compound CCc1cc2c(=O)c(-c3nc4ccccc4s3)coc2c(CN2CCCCC2)c1O [compound #25] ?
Response: 126

====

- test-method-notes: Pharmacokinetic analysis, plasma and tumor distribution
- Type: in vivo, nude mice
- test-conditions: nude, mouse, tumor, intraperitoneal; 24 h after initial administration; read-out: concentration remaining in tumor tissues
readout-name: concentration at 24 h

Prompt: I am curious: what concentration at 24 h value has been reported for `CCc1cc2c(=O)c(-c3nc4ccccc4s3)coc2c(CN2CCCCC2)c1O` ?
Response: ~1160 ng/mL

====

- test-method-notes: Pharmacokinetic analysis, plasma and tumor distribution
- Type: in vivo, nude mice
- test-conditions: nude, mouse, blood; IP administration
readout-name: Cmax (ng/mL)
Give just the number in ng/mL; leave the unit off.

Prompt: Quick one: Cmax for `CCc1cc2c(=O)c(-c3nc4ccccc4s3)coc2c(CN2CCCCC2)c1O` ?
Response: 1430

Just for reference, patent US9624211B2 is where these values come from.
